Entry source: patent US5776944A

tested on: Staphylococcus aureus 6538p; experiment: In vitro antibacterial activity (MIC, agar dilution), Biological Example 1; format: cell-based; settings: 18 h, Table 25, read-out: Minimum Inhibitory Concentration
Listed next: entries and their corresponding MIC.
quantityKind: MIC (µg/mL)

{"compound": "CON=C1CN(c2c(F)cc3c(=O)c(C(=O)O)cn(C4CC4)c3c2Cl)CC1CN (stereo not shown) [Example 178]", "quantityKind": "MIC", "valuePrefix": "=", "experimentalResult": 0.031}
{"compound": "CC1COc2c(N3CCN(C)CC3)c(F)cc3c(=O)c(C(=O)O)cn1c23 (stereo not shown) [OFLX, ofloxacin, reference compound]", "quantityKind": "MIC", "valuePrefix": "=", "experimentalResult": 0.25}
{"compound": "CON=C1CN(c2cc3c(cc2F)c(=O)c(C(=O)O)cn3C2CC2)CC1CN (stereo not shown) [Example 179]", "quantityKind": "MIC", "valuePrefix": "≤", "experimentalResult": 0.008}
{"compound": "CC(C)CON=C1CN(c2nc3c(cc2F)c(=O)c(C(=O)O)cn3C2CC2)CC1CN (stereo not shown) [Example 102]", "quantityKind": "MIC", "valuePrefix": "=", "experimentalResult": 0.016}

---

Listed next: entries and their corresponding MIC.
system: Enterobacter cloacae 1194E; assay: microbe, parasite or virus in culture; format: cell-based; conditions: 18 h, read-out: Minimum Inhibitory Concentration
quantityKind: MIC

{"compound": "CC(C)CON=C1CN(c2nc3c(cc2F)c(=O)c(C(=O)O)cn3C2CC2)CC1CN (stereo not drawn)", "experimentalResult": "0.25 µg/mL"}
{"compound": "C#CCCON=C1CN(c2nc3c(cc2F)c(=O)c(C(=O)O)cn3C2CC2)CC1CN (stereo not drawn)", "experimentalResult": "≤ 0.008 µg/mL"}
{"compound": "CC(C)(C)ON=C1CN(c2nc3c(cc2F)c(=O)c(C(=O)O)cn3C2CC2)CC1CN (stereo not drawn)", "experimentalResult": "0.13 µg/mL"}
{"compound": "NCC1CN(c2c(F)c(N)c3c(=O)c(C(=O)O)cn(C4CC4)c3c2F)CC1=NOCc1ccccc1 (stereo not drawn)", "experimentalResult": "0.031 µg/mL"}
{"compound": "NCC1CN(c2cc3c(cc2F)c(=O)c(C(=O)O)cn3C2CC2)CC1=NOCc1ccccc1 (stereo not drawn)", "experimentalResult": "0.13 µg/mL"}
{"compound": "C#CCON=C1CN(c2nc3c(cc2F)c(=O)c(C(=O)O)cn3C2CC2)CC1CN (stereo not drawn)", "experimentalResult": "0.016 µg/mL"}
